EXPERIMENTAL SYSTEM: full-length beta-Catenin (Uniprot ID P35222) (Homo sapiens (Human)) (UniProt P35222)
Sequence (P35222 2-781 limits assumed): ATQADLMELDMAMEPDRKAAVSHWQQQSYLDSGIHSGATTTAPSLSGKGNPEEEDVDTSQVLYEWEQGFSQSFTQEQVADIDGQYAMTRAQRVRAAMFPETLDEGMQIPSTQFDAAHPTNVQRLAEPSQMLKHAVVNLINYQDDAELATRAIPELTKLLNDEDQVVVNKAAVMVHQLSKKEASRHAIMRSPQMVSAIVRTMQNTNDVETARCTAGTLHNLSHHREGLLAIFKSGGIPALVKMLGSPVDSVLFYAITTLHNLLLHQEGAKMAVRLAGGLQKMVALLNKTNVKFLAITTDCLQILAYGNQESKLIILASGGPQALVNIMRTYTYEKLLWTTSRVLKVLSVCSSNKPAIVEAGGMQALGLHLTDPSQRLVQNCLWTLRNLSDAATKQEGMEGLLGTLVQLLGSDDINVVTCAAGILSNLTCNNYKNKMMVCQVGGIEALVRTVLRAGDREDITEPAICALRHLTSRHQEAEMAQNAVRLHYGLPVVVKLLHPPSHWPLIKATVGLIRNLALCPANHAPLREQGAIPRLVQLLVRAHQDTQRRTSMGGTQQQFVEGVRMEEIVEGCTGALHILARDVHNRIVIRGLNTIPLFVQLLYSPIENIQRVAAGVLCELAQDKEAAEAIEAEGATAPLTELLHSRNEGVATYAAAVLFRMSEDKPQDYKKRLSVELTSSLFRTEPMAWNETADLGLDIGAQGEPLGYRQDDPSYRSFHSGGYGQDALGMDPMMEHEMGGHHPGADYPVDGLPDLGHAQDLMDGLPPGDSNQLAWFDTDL
PROTOCOL DETAILS: cell-based or functional assay
Starred links: 1 amine or outer side, 2 acyl side, 3 side chain; linkers in the order of their positions; H or OH if unused. Positions of bridges follow the written chain, without caps; N, C: chain ends. Non-standard residues stand in square brackets, D forms with d. Primed or numbered codes have the meaning given here. PyrS2″ = (S)-3-amino-1-((pent-4-en-1-yloxy)carbonyl)pyrrolidine-3-carboxylic acid (stapling residue), C=CCCCOC(=O)N1CC[C@@](N[*:1])(C(=O)[*:2])C1; B5(5) = 2,2-bis(4-pentenyl)glycine, 2-amino-2-(pent-4-en-1-yl)hept-6-enoic acid (stitching residue), C=CCCCC(CCCC=C)(N[*:1])C(=O)[*:2]; PyrS2 = (S)-3-amino-1-((pent-4-en-1-yloxy)carbonyl)pyrrolidine-3-carboxylic acid, C=CCCCOC(=O)N1CC[C@@](N[*:1])(C(=O)[*:2])C1; Phe(2-Cl) = N[C@@H](Cc1ccccc1Cl)C(=O)O; Bta = N[C@@H](Cc1csc2ccccc12)C(=O)O; αAllylPro = C=CC[C@@]1(C(=O)O)CCCN1; tBuAla = CC(C)(C)C[C@H](N)C(=O)O; Cha = N[C@@H](CC1CCCCC1)C(=O)O
OBSERVABLE: DLD1 reporter assay Abs IC50

The cases that follow already have their DLD1 reporter assay Abs IC50 on record.
{"BINDER": "Ac-[αAllylPro]D[tBuAla][B5(5)]EDAAFN[PyrS2″][Phe(2-Cl)][Bta][dT]-NH2 (staple 1-4, 4-11) [I-1030]", "DLD1 reporter assay Abs IC50": "> 20 µM"}
{"BINDER": "Ac-[αAllylPro]D[tBuAla][B5(5)]DDAAFL[PyrS2″][Phe(2-Cl)][Bta][dT]-NH2 (staple 1-4, 4-11) [I-1035]", "DLD1 reporter assay Abs IC50": "> 20 µM"}

// query DLD1 reporter assay Abs IC50 value for entry Ac-[αAllylPro]D[Cha][B5(5)]DDAAFS[PyrS2][Phe(2-Cl)][Bta]S-NH2 (staple 1-4, 4-11) [I-1050]
11.2 µM
